system: NIH3T3 viability, CellTiter-Glo ATP luminescence; assay: NIH3T3 cell viability loss, ATP content – CellTiter-Glo luminescence, cherry-pick, set 2, cytotoxicity control for HSP40 inhibitor project, dose response (AID 624265);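 note: cells exposed to compound for 48 hours before the ATP read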
Catalogue of AC35 readings, one per entry.

Example results:
                                   molecule   result
0  CCCCNc1c(-c2cccc(-c3ccc(OC)cc3)c2)nc2ccc(C)cn12  22.7 µM
1  CCOC(=O)c1cc2c(=Cc3ccc(N(C)C)cc3)c3ccccc3n2[n+]1C    29 µM
2              CCc1cc(SC#N)cc(C)c1NC(=O)CCl  49.6 µM
3  CN(C)c1ccc(C=c2c3ccccc3n3c2c2c([n+]3C)CCCC2)cc1  33.3 µM
4  CC[n+]1c(/C=C/C=C/c2ccc(N(C)C)cc2)sc2ccccc21  24.4 µM

Lookup: Can you share its AC35? I mean this molecule: "Cc1[nH]n(-c2ccccc2)c(=O)c1/C=N/Nc1nncc(-c2ccccc2)n1"
Found: 19.5 µM

Lookup: Can you share its AC35? I mean this molecule: CC(C)N1CCN(c2ccc(OCC3COC(Cn4cncn4)(c4ccc(Cl)cc4Cl)O3)cc2)CC1 (stereo unspecified)
Found: 12.4 µM

Lookup: Can you share its AC35? I mean this molecule: "Nc1cc2nc3ccccc3oc-2cc1=O"
Found: 28 µM

Lookup: Can you share its AC35? I mean this molecule: "Cc1oc2c(c1C(=O)c1ccccc1)C(=O)C(=O)c1ccccc1-2"
Found: 8.43 µM

Lookup: Can you share its AC35? I mean this molecule: CCC(=O)NC(c1ccco1)c1cc(Cl)c2cccnc2c1O (stereo unspecified)
Found: 49.1 µM

Lookup: Can you share its AC35? I mean this molecule: Cc1cccc2sc(NNC(=O)c3ccc(S(=O)(=O)N4CCCC(C)C4)cc3)nc12 (stereo unspecified)
Found: 40.5 µM

====

tested on: NIH3T3 viability, CellTiter-Glo ATP luminescence; experiment: NIH3T3 cell viability loss, ATP content – CellTiter-Glo luminescence, cherry-pick, set 2, cytotoxicity control for HSP40 inhibitor project, dose response (AID 624265);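 note: cells exposed to compound for 48 hours before the ATP read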
Catalogue of AC35 readings, one per entry.

Example results:
In [3]: df
Out[3]:
                           molecular_string  measurement_type   result
0  CC(C)N1CCN(c2ccc(OC[C@H]3CO[C@](Cn4cncn4)(c4ccc(Cl)cc4Cl)O3)cc2)CC1              AC35  30.8 µM
1  O=[N+]([O-])c1ccc(Sc2cccc[n+]2[O-])c2nonc12              AC35  4.46 µM
2  COc1cccc(/C=N/Nc2ncnc3scc(-c4ccccc4)c23)c1O              AC35  48.4 µM
3     COc1ccc(O)c(C(=O)CC(=O)c2ccc(F)cc2)c1              AC35  52.3 µM

Lookup: Lab note: need AC35 with NIH3T3 viability, CellTiter-Glo ATP luminescence for entry "Oc1ccc(/C=N/Nc2ccc(C(F)(F)F)cn2)c(O)c1" , please look it up.
Found: 43.9 µM

====

system: NIH3T3 viability, CellTiter-Glo ATP luminescence; test: NIH3T3 cell viability loss, ATP content – CellTiter-Glo luminescence, cherry-pick, set 2, cytotoxicity control for HSP40 inhibitor project, dose response (AID 624265);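 note: cells exposed to compound for 48 hours before the ATP read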
Catalogue of AC35 readings, one per entry.

Example results:
>>> print(df.to_string())
                                   molecule   result
0                Oc1cccc2ccc(Nc3ccccn3)nc12  14.2 µM
1          COc1cccc(/C=N/Nc2ncnc(Cl)c2N)c1O  47.2 µM
2  CCCCNc1c(-c2cccc(Sc3ccc(OC)cc3)c2)nc2ccccn12  39.2 µM
3         CN(C)c1nc(-c2ccccn2)nnc1-c1ccccc1  43.5 µM
4  Cc1c(Cc2ccccc2)c(NCCN(C)C)n2c(nc3ccccc32)c1C#N  16.3 µM
5  CNc1ccc2oc(C[C@H]3O[C@@]4(CC[C@H]3C)O[C@H]([C@H](C)C(=O)c3ccc[nH]3)[C@H](C)C[C@H]4C)nc2c1C(=O)O  11.1 µM
6         O=C1c2cc(F)ccc2-n2c1nc1ccccc1c2=O    50 µM
7       O=C(Nc1nc(-c2ccccn2)cs1)c1ccc(Br)s1  27.1 µM
8  Oc1c(C(Nc2cccc(C(F)(F)F)c2)c2ccncc2)ccc2cccnc12 (stereo unspecified)  48.9 µM
9  C=C1C(=O)C23CCC4C(C)(C(=O)OC)CCCC4(C)C2CCC1(O)C3 (stereo unspecified)  10.1 µM

Lookup: Can you share its AC35? I mean this molecule: "Cc1ccc(Cl)cc1NC1=C/C(=N\S(=O)(=O)c2cccs2)c2ccccc2C1=O"
Found: 8.07 µM

Lookup: Can you share its AC35? I mean this molecule: "Cc1ccc(S(=O)(=O)Nc2ccc(O)c3cccnc23)cc1"
Found: 33 µM

Lookup: Can you share its AC35? I mean this molecule: "O=CC1=C(c2ccccc2)Oc2ccccc2O1"
Found: 47.5 µM

Lookup: Can you share its AC35? I mean this molecule: "CC1=CC(=O)C=C(C)C1=NOS(=O)(=O)c1ccccc1"
Found: 27.6 µM

Lookup: Can you share its AC35? I mean this molecule: "CCCCCCCCCCOC(=O)Cn1c(COc2ccccc2OC)[n+](C)c2ccccc21"
Found: 26.7 µM

Lookup: Can you share its AC35? I mean this molecule: "CC1CCN(c2nc(-c3ccncc3)nc3ccccc23)CC1"
Found: 49.6 µM

Lookup: Can you share its AC35? I mean this molecule: "CN(Cc1ccc(Cl)s1)C(=O)CCl"
Found: 25 µM

Lookup: Can you share its AC35? I mean this molecule: "Oc1ccc(N=Nc2ccc3c(c2)OCCO3)c2cccnc12"
Found: 50.2 µM

Lookup: Can you share its AC35? I mean this molecule: "CCCCOC(=O)/C=C/c1ccc(OC(=O)OC)c(OC(=O)OC)c1"
Found: 50.7 µM

Lookup: Can you share its AC35? I mean this molecule: "CC(=O)C1=C(c2ccc(Br)cc2)C(=O)c2ccccc2C1=O"
Found: 26.2 µM

Lookup: Can you share its AC35? I mean this molecule: "CC(=O)Oc1ccc(OC(C)=O)c(SCCCCCCl)c1"
Found: 42.6 µM
